The reported numbers originate from paper PMC8882611.

Read-out record for α-glucosidase enzyme (from Saccharomyces cerevisiae) (Saccharomyces cerevisiae): IC50
Provide the reading as a plain figure in µM.

[
  {
    "COMPOUND": "COc1cc2cc(c1O)Oc1ccc(cc1)CCC(=O)/C=C/C=C/2",
    "TEST TARGET": "α-glucosidase enzyme (from Saccharomyces cerevisiae) (Saccharomyces cerevisiae)",
    "IC50 / µM": 126
  },
  {
    "COMPOUND": "COc1c2cc(c(OC)c1O)Oc1ccc(cc1)[C@@H](O)C[C@@H](O)CC/C=C\\2",
    "TEST TARGET": "α-glucosidase enzyme (from Saccharomyces cerevisiae) (Saccharomyces cerevisiae)",
    "IC50 / µM": 56.6
  },
  {
    "COMPOUND": "COc1c2cc(c(OC)c1O)Oc1ccc(cc1)CCC(=O)CC/C=C\\2",
    "TEST TARGET": "α-glucosidase enzyme (from Saccharomyces cerevisiae) (Saccharomyces cerevisiae)",
    "IC50 / µM": 108
  },
  {
    "COMPOUND": "O=C1CCc2ccc(OC3OC(CO)C(O)C(O)C3O)c(c2)-c2cc(ccc2O)CC(O)C(O)C1O (stereo not shown)",
    "TEST TARGET": "α-glucosidase enzyme (from Saccharomyces cerevisiae) (Saccharomyces cerevisiae)",
    "IC50 / µM": 131
  },
  {
    "COMPOUND": "COc1c2cc(c(OC)c1O)Oc1ccc(cc1)CCC(=O)C[C@H](O)/C=C\\2",
    "TEST TARGET": "α-glucosidase enzyme (from Saccharomyces cerevisiae) (Saccharomyces cerevisiae)",
    "IC50 / µM": 146
  }
]

Recorded IC50 of O=C1CCc2ccc(O)c(c2)-c2cc(ccc2O)CC(OC2OC(CO)C(O)C(O)C2O)CC1O (stereo not shown) , please.
128

Recorded IC50 of Oc1ccc2cc1-c1cc(ccc1O)C[C@H](O)[C@H](O)C(O)[C@@H](O)[C@H](O)C2 (stereo partly shown) , please.
55.3

Recorded IC50 of `COc1c(O)cc2cc1Oc1ccc(cc1)CC[C@H](O)/C=C/C=C\2` , please.
109

Recorded IC50 of `O=C1CCc2ccc(O)c(c2)-c2cc(ccc2O)CC[C@@H](O)[C@H]1O` , please.
123

Recorded IC50 of `COc1c2cc(c(OC)c1O)Oc1ccc(cc1)CCC(=O)CC/C=C/2` , please.
184

Recorded IC50 of `O=C1/C=C/CCc2ccc(O)c(c2)-c2cc(ccc2O)CC1` , please.
154

Recorded IC50 of `COc1c2cc(c(OC)c1O)Oc1ccc(cc1)CC[C@H](O)CC/C=C\2` , please.
105

Recorded IC50 of `O=C(CCc1ccc(O)c(O)c1)C[C@H](CCc1ccc(O)c(O)c1)O[C@@H]1OC[C@@H](O)[C@H](O)[C@H]1O` , please.
144

Recorded IC50 of `O=C1CCc2ccc(O)c(c2)-c2cc(ccc2O)C[C@H](O)[C@H](O)[C@H]1O` , please.
107

Recorded IC50 of `COc1c2cc(c(OC)c1O)Oc1ccc(cc1)[C@@H](O)C[C@@H](O)/C=C/C=C\2` , please.
70

Recorded IC50 of O=C1C=CCCc2ccc(OC3OC(CO)C(O)C(O)C3O)c(c2)-c2cc(ccc2OC2OCC(O)C(O)C2O)CC1 (stereo not shown) , please.
105

Recorded IC50 of `Oc1ccc2cc1-c1cc(ccc1O)C[C@H](O)[C@@H](O)[C@H](O)C[C@@H](O)C2` , please.
172

Recorded IC50 of `COc1c2cc(c(OC)c1O)Oc1ccc(cc1)[C@@H](O)CC(=O)CC/C=C/2` , please.
164
